The reader will find reported pKi values listed item by item below.
molecular target: Recombinant human hepsin (4776-SE-010, R&D Systems), activated (human, UniProt P05981); test: fluorogenic inhibition assay
Primed or numbered codes have the meaning given here. *: point of attachment. kt = C-terminal ketothiazole, c1csc(*)n1; kt″ = ketothiazole, c1csc(*)n1
As a rule, pKi stands for the negative log10 of the concentration, concentration in M.

# count of solved cases: 5
LLR (N-terminal acetyl; C-terminus printed as -H) [Leupeptin (Ac-LLR-H)] : 7.21
Ac-SQLR-kt (SMILES CC(=O)N[C@@H](CO)C(=O)N[C@@H](CCC(N)=O)C(=O)N[C@@H](CC(C)C)C(=O)N[C@@H](CCCNC(=N)N)C(=O)c1nccs1) [Ac-SQLR(SEQ ID NO: 7)-kt] : 9.47
Ac-WRLR-kt (SMILES CC(=O)N[C@@H](Cc1c[nH]c2ccccc12)C(=O)N[C@@H](CCCNC(=N)N)C(=O)N[C@@H](CC(C)C)C(=O)N[C@@H](CCCNC(=N)N)C(=O)c1nccs1) [Ac-WRLR(SEQ ID NO: 9)-kt] : 9.68
Ac-WKLR-kt (SMILES CC(=O)N[C@@H](Cc1c[nH]c2ccccc12)C(=O)N[C@@H](CCCCN)C(=O)N[C@@H](CC(C)C)C(=O)N[C@@H](CCCNC(=N)N)C(=O)c1nccs1) [Ac-WKLR(SEQ ID NO: 12)-kt] : 9.26
Ac-KQLR-{kt″} (SMILES CC(=O)N[C@@H](CCCCN)C(=O)N[C@@H](CCC(N)=O)C(=O)N[C@@H](CC(C)C)C(=O)N[C@@H](CCCNC(=N)N)C(=O)c1nccs1) [Ac-KQLR(SEQ ID NO: 1)-kt] : 9.72

# next binder below
### Prompt So what's the measured pKi for this one? Ac-RKLR-kt (SMILES CC(=O)N[C@@H](CCCNC(=N)N)C(=O)N[C@@H](CCCCN)C(=O)N[C@@H](CC(C)C)C(=O)N[C@@H](CCCNC(=N)N)C(=O)c1nccs1) [Ac-RKLR(SEQ ID NO: 18)-kt]
### Response 9.33
